- target of assay: Bifunctional 3'-5' exonuclease/ATP-dependent helicase WRN (Homo sapiens, UniProt Q14191)
- Sequence (Q14191 whole entry): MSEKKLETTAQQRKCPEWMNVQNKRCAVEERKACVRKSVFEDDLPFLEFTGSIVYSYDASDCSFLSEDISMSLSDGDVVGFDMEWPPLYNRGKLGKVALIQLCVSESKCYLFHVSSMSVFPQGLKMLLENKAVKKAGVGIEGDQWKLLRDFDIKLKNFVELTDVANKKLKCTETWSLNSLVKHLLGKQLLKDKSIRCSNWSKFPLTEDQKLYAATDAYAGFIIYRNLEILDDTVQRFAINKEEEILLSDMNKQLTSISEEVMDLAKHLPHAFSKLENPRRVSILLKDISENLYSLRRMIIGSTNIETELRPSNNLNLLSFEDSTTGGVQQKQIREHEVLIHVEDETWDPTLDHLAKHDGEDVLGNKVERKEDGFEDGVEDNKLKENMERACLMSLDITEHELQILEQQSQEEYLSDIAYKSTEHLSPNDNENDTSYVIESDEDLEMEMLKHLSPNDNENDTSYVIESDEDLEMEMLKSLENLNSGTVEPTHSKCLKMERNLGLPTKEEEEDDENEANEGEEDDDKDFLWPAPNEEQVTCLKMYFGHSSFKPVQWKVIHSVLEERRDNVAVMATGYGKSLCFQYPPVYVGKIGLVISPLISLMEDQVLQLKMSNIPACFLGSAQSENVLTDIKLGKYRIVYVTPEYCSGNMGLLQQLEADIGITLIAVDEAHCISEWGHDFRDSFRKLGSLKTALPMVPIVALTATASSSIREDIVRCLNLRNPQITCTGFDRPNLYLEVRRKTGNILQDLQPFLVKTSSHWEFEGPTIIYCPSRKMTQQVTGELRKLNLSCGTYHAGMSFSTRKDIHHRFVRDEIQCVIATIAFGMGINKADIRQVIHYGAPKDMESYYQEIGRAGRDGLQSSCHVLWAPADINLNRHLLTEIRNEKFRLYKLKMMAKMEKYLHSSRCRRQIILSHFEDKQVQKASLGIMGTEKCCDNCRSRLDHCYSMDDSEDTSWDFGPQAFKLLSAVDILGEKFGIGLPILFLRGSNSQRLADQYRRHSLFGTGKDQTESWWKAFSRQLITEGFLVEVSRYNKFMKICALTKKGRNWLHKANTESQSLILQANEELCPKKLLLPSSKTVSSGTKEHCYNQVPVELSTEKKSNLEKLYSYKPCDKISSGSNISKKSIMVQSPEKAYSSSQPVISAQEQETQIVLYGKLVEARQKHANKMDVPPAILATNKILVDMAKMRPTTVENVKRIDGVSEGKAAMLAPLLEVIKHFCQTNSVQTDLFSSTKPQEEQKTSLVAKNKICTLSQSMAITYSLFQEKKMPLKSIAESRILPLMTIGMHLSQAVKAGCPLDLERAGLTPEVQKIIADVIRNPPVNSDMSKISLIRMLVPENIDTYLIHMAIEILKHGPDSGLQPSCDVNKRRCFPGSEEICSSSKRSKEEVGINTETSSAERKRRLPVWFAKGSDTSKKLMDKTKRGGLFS
- assay summary: ADP-Glo Kinase Assay
pIC50: −log10 of the molar value.
Please note: rule met applies when pIC50 is 7 or greater, and rule not met applies otherwise.

{"compound": "CCc1c(N2CCN(C(=O)c3ncnc(C)c3O)CC2)c(=O)n2nc(-c3ccc4c(c3)CCO4)nc2n1CC(=O)Nc1ccc(C(F)(F)F)cc1Cl [WO2025049746, Example 11]", "assigned class": "rule met"}
{"compound": "CCc1c(N2CCCC3C2CCN3C(=O)c2ncnc(C)c2O)c(=O)n2nc(C3=CCOCC3)nc2n1CC(=O)Nc1ccc(C(F)(F)F)cc1Cl (stereo unspecified) [WO2025049746, Example 345]", "assigned class": "rule not met"}
{"compound": "CCc1c(N2CCN(C(=O)c3ncnc(C)c3O)CC2)c(=O)n2nc(-c3ccc4nc(NC)oc4c3)nc2n1CC(=O)Nc1ccc(C(F)(F)F)cc1Cl [WO2025049746, Example 307]", "assigned class": "rule met"}
{"compound": "CCc1c(N2CCN(C(=O)c3ncnc(C)c3O)CC2)c(=O)n2nc(-c3ccc4c(c3)ncn4C)nc2n1CC(=O)Nc1ccc(C(F)(F)F)cc1Cl [WO2025049746, Example 254]", "assigned class": "rule met"}
{"compound": "CCc1c(N2CCN(C(=O)c3ncnc(C)c3O)CC2)c(=O)n2nc(-c3ccc4c(c3)CCOC4)nc2n1CC(=O)Nc1ccc(SC(F)(F)F)cc1 [WO2025049746, Example 393]", "assigned class": "rule not met"}
{"compound": "CCc1c(N2CCN(C(=O)c3ncnc(C)c3O)CC2)c(=O)n2nc(-c3cccc4c3CCOC4)nc2n1CC(=O)Nc1c(Cl)cc(C(F)(F)F)c2c1CC2 [WO2025049746, Example 389]", "assigned class": "rule not met"}
{"compound": "CCc1c(N2CCN(C(=O)c3ncnc(C)c3O)CC2)c(=O)n2nc(-c3ccc4nc(N5CCOCC5)oc4c3)nc2n1CC(=O)Nc1ccc(C(F)(F)F)cc1Cl [WO2025049746, Example 315]", "assigned class": "rule met"}
{"compound": "CCc1c(N2CCN(C(=O)c3ncnc(C)c3O)CC2)c(=O)n2nc(-c3ccc4c(c3)COC4)nc2n1CC(=O)Nc1c(Cl)cc(C(F)(F)F)c2scnc12 [WO2025049746, Example 424]", "assigned class": "rule met"}

====

- target of assay: Bifunctional 3'-5' exonuclease/ATP-dependent helicase WRN [480-1251] (UniProt Q14191)
- Construct: 480-1251
- assay summary: Biochemical Activity Assays
pIC50: −log10 of the molar value.
If the reported pIC50 equals or exceeds 7, assign satisfied. If not, assign not satisfied.

{"compound": "CCc1c(N2CCN(C(=O)c3ncnc(C)c3O)CC2)c(=O)n2nc(-c3ccc([S+](C)[O-])cc3)nc2n1CC(=O)Nc1ccc(C(F)(F)F)cc1Cl (stereo not given)", "assigned class": "satisfied"}
{"compound": "CCc1c(N2CCN(C(=O)c3ncnc(C)c3O)CC2)c(=O)n2nc(C3=CCOCC3)nc2n1CC(=O)NC1CCC(F)(F)CC1", "assigned class": "not satisfied"}
{"compound": "CCc1c(N2CCN(C(=O)c3ncnc(C)c3O)CC2)c(=O)n2nc(-c3ccc4nn(C)cc4c3C)nc2n1CC(=O)Nc1ccc(C(F)(F)F)cc1Cl", "assigned class": "satisfied"}
{"compound": "CCc1c(N2CCN(C(=O)c3ncnc(C)c3O)CC2)c(=O)n2nc(-c3ccc4nc(NCC(F)F)oc4c3)nc2n1CC(=O)Nc1ccc(C(F)(F)F)cc1Cl", "assigned class": "satisfied"}
{"compound": "CCc1c(N2CCN(C(=O)c3cccc4c3NS(=O)(=O)CC4)CC2)c(=O)n2nc(-c3ccc4c(c3)COC4)nc2n1CC(=O)Nc1ccc(C(F)(F)F)cc1Cl", "assigned class": "satisfied"}
{"compound": "CCc1c(N2CCN(C(=O)c3ncnc(C)c3O)CC2)c(=O)n2nc(-c3ccc4c(c3)CC[C@@H]4OC)nc2n1CC(=O)Nc1ccc(C(F)(F)F)cc1Cl", "assigned class": "satisfied"}
{"compound": "CCc1c(N2CCN(C(=O)c3ncnc(C)c3O)CC2)c(=O)n2nc(-c3cccc4c3OCO4)nc2n1CC(=O)Nc1ccc(SC(F)(F)F)cc1", "assigned class": "not satisfied"}

====

- target of assay: Bifunctional 3'-5' exonuclease/ATP-dependent helicase WRN [480-1251] (UniProt Q14191)
- Construct: 480-1251
- assay summary: Biochemical Activity Assays
attribute measured: IC50

{"compound": "CCc1c(N2CCN(C(=O)c3ncnc(C)c3O)CC2)c(=O)n2nc(-c3cnc4nn(C)cc4c3)nc2n1CC(=O)Nc1ccc(C(F)(F)F)cc1Cl [WO2025049746, Example 313]", "endpoint value": "38 nM"}
{"compound": "CCc1c(N2CCN(C(=O)c3ncnc(C)c3O)CC2)c(=O)n2nc(-c3ccc(OCC(=O)O)cc3)nc2n1CC(=O)Nc1ccc(C(F)(F)F)cc1Cl [WO2025049746, Example 330]", "endpoint value": "33 nM"}
{"compound": "CCc1c(N2CCN(C(=O)c3ncnc(C)c3O)CC2)c(=O)n2nc(-c3cc4n(n3)CCC4)nc2n1CC(=O)Nc1ccc(C(F)(F)F)cc1Cl [WO2025049746, Example 183]", "endpoint value": "46 nM"}
{"compound": "CCc1c(N2CCN(C(=O)c3ncnc(C)c3O)CC2)c(=O)n2nc(N(C)C)nc2n1CC(=O)Nc1ccc(C(F)(F)F)c2c1CC2 [WO2025049746, Example 104]", "endpoint value": "22.8 nM"}
{"compound": "CCc1c(N2CCN(C(=O)c3ncnc(C)c3O)CC2)c(=O)n2nc(-c3ccc4c(c3)CC(C)(C)N4C)nc2n1CC(=O)Nc1ccc(C(F)(F)F)cc1Cl [WO2025049746, Example 316]", "endpoint value": "68 nM"}
{"compound": "CCc1c(N2CCN(C(=O)c3ncnc(C)c3O)CC2)c(=O)n2nc(-c3ccn4c(C)nnc4c3)nc2n1CC(=O)Nc1ccc(C(F)(F)F)cc1Cl [WO2025049746, Example 246]", "endpoint value": "42 nM"}
{"compound": "CCc1c(N2CCN(C(C)=O)CC2)c(=O)n2nc(-c3ccc4c(c3)OCO4)nc2n1CC(=O)Nc1ccc(C(F)(F)F)cc1Cl [WO2025049746, Example 89]", "endpoint value": "240 nM"}
{"compound": "CCc1c(N2CCN(c3ccncn3)CC2)c(=O)n2nc(C3=CCOCC3)nc2n1CC(=O)Nc1ccc(C(F)(F)F)cc1Cl [WO2025049746, Example 66]", "endpoint value": "45.9 nM"}
{"compound": "CCc1c(N2CCN(C(=O)c3ccccc3NS(C)(=O)=O)CC2)c(=O)n2nc(N(C)C)nc2n1CC(=O)Nc1ccc(C(F)(F)F)c2c1CC2 [WO2025049746, Example 106]", "endpoint value": "276 nM"}
{"compound": "CCc1c(N2CCN(C(=O)c3ncnc(C)c3O)CC2)c(=O)n2nc(-c3ccc4ncn(C)c4c3)nc2n1CC(=O)Nc1ccc(C(F)(F)F)cc1Cl [WO2025049746, Example 236]", "endpoint value": "25 nM"}
{"compound": "CCc1c(N2CCN(C(=O)c3ccccc3NS(=O)(=O)C3CC3)CC2)c(=O)n2nc(N(C)C)nc2n1CC(=O)Nc1ccc(C(F)(F)F)c2c1CC2 [WO2025049746, Example 105]", "endpoint value": "264 nM"}
{"compound": "CCc1c(N2CCN(C(=O)c3ncnc(C)c3O)CC2)c(=O)n2nc(-c3ccc4c(c3)CCOC4)nc2n1CC(=O)Nc1ccc(OC(F)(F)Cl)cc1 [WO2025049746, Example 398]", "endpoint value": "34 nM"}
{"compound": "CCc1c(N2CCN(C(=O)c3ncnc(C)c3O)CC2)c(=O)n2nc(N3CCCn4nccc43)nc2n1CC(=O)Nc1ccc(C(F)(F)F)cc1Cl [WO2025049746, Example 31]", "endpoint value": "28.9 nM"}
{"compound": "CCc1c(N2CCN(C(=O)c3nccc4nc[nH]c34)CC2)c(=O)n2nc(-c3ccc4c(c3)CCOC4)nc2n1CC(=O)Nc1ccc(C(F)(F)F)cc1Cl [WO2025049746, Example 92]", "endpoint value": "23 nM"}
{"compound": "CCc1c(N2CCN(C(=O)c3ncnc(C)c3O)CC2)c(=O)n2nc(-c3ccn4nccc4c3C)nc2n1CC(=O)Nc1ccc(C(F)(F)F)cc1Cl [WO2025049746, Example 239]", "endpoint value": "22 nM"}
{"compound": "CCc1c(N2CCN(C(=O)c3nccc4nc[nH]c34)CC2)c(=O)n2nc(N(C)C)nc2n1CC(=O)Nc1ccc(C(F)(F)F)cc1Cl [WO2025049746, Example 80]", "endpoint value": "26.9 nM"}
{"compound": "CCc1c(N2CCN(C(=O)c3ncnc(C)c3O)CC2)cn2nc(C3=CCOCC3)nc2c1CC(=O)Nc1ccc(C(F)(F)F)cc1Cl [WO2025049746, Example 374]", "endpoint value": "29700 nM"}
{"compound": "CCc1c(N2CCN(C(=O)c3ncnc(C)c3O)CC2)c(=O)n2nc(C3=CCOCC3)nc2n1CC(=O)NC1CC2(C1)CC2(F)F (configuration not stated) [WO2025049746, Example 366]", "endpoint value": "2540 nM"}
{"compound": "CCc1c(N2CCN(C(=O)c3ncnc(C)c3O)CC2)c(=O)n2nc(-c3cccc4nc(C)oc34)nc2n1CC(=O)Nc1ccc(C(F)(F)F)cc1Cl [WO2025049746, Example 23]", "endpoint value": "30 nM"}
{"compound": "CCc1c(N2CCN(C(=O)c3ncnc(C)c3O)CC2)c(=O)n2nc(N3CC(OC)C3)nc2n1CC(=O)Nc1ccc(C(F)(F)F)cc1Cl [WO2025049746, Example 27]", "endpoint value": "56 nM"}
{"compound": "CCc1c(N2CCN(C(=O)c3ncnc(C)c3O)CC2)c(=O)n2nc(-c3ccc4nc(C)oc4c3)nc2n1CC(=O)Nc1ccc(C(F)(F)F)cc1Cl [WO2025049746, Example 237]", "endpoint value": "84 nM"}
{"compound": "CCc1c(N2CCN(C(=O)c3ncnc(C)c3O)CC2)c(=O)n2nc(C3CCC3)nc2n1CC(=O)Nc1ccc(C(F)(F)F)cc1C [WO2025049746, Example 79]", "endpoint value": "456 nM"}
